Test system: HOP-92
Assay: NCI tumour cell line growth inhibition, 48 h
Active and inactive are the calls of the source. Cut-off read from the data, not from the text of the source: active = GI50 up to about 1.1 µM and inactive = higher.
Your reply should match one of these outcome classes. class 1 (active), class 0 (inactive)

Would you please look over these solved cases?
> print(dat)
                                   compound  assayed.target  class.assignment
1  CCOc1ccc2c(c1)[n+]([O-])c(-c1ccc([N+](=O)[O-])cc1)c(N)[n+]2[O-]          HOP-92           class 0
2  C/C(=C\CBr)CCC(Br)C(C)(C)Cl (stereo not given)          HOP-92           class 0
3  COc1cccc(/C=N\NC(=O)C(C)SC(C)C(=O)N/N=C/c2cccc(OC)c2)c1 (stereo not given)          HOP-92           class 0
4  Cc1ccc(C2=Nn3c(nc4sc5c(c4c3=O)CCCC5)SC2)cc1          HOP-92           class 0

IN: Called result for CC[C@@]1(O)C(=O)OCc2c1cc1n(c2=O)Cc2c-1nc1ccccc1c2/C=N/NC(=O)c1ccc(N)cc1
OUT: class 1

* * *

Tested on: EKVX
Assay: NCI tumour cell line growth inhibition, 48 h
Calls of active or inactive are those of the source. Rule as the data show it: active = GI50 up to about 1.1 µM and inactive = higher.
Attribute measured: GI50

> print(dat)
                                test.smiles  attribute.measured         result.value
1  Cc1cccc(CNNC(=O)c2cc[n+]([BH2-]C#N)cc2)c1                GI50   36.4 µM (inactive)
2       O=c1cc(CO)n(CCc2c[nH]c3ccccc23)cc1O                GI50  > 100 µM (inactive)
3          COc1cc2nc(-c3ccccc3)cc(O)c2cc1OC                GI50  > 100 µM (inactive)
4      Cn1c2ccccc2n2c3nc4ccccc4nc3c(C#N)c12                GI50  > 100 µM (inactive)
5  [O-][N+]1=C(c2ccccc2)/C(=C2/C(c3ccccc3)=[N+]([O-])c3ccccc32)Cc2ccccc21                GI50   20.4 µM (inactive)

Next item in the queue.
IN: Entry N/C(=N\O)N/N=C/c1ccc(C(F)(F)F)cc1 : reported GI50 = ?
OUT: 4.23 µM (inactive)

* * *

System: A498
Experiment: NCI tumour cell line growth inhibition, 48 h
Active and inactive are the calls of the source. Rule as the data show it: active = GI50 up to about 1.1 µM and inactive = higher.
Attribute measured: GI50

Known GI50 results, listed for orientation:
> print(dat)
                                   compound         result.value
1  Cc1cc2c(c(/C=N/Cc3ccccc3)c1)OC1(C=C2)Oc2ccccc2C(=O)N1C (stereo not given)   23.9 µM (inactive)
2  CCCCC(=O)OC[n+]1ccc(-c2c(COC(=O)NC(C)C)c(COC(=O)NC(C)C)c3n2CCC3)cc1   23.9 µM (inactive)
3          COc1cc2nc(-c3ccccc3)cc(O)c2cc1OC   40.6 µM (inactive)
4  COc1ccc(C(=O)C(CO)Oc2ccccc2OC)cc1OC (stereo not given)  > 100 µM (inactive)
5  CC1(c2ccc(Cl)cc2)CC(c2ccc(Cl)cc2)=C(C#N)C(=C(C#N)C#N)N1 (stereo not given)   18.5 µM (inactive)
6  C=CCC1(CN(C)C)CC/C(=C\c2ccc(OC)cc2)C1=O (stereo not given)   73.5 µM (inactive)
7  Cc1nc2c(sc(=S)n2-c2ccccc2)c2nc3ccccc3n12   > 10 µM (inactive)
8  Cc1cccc(CNNC(=O)c2cc[n+]([BH2-]C#N)cc2)c1   24.7 µM (inactive)

IN: Which GI50 value belongs to COC(=O)C#Cc1ccc([N+](=O)[O-])cc1 ?
OUT: 9.91 µM (inactive)

IN: Look up GI50 for this compound: Cc1ccc(NC(=O)c2cccc(OP(=O)(Nc3ccc(C)cc3)Nc3ccc(C)cc3)c2)cc1
OUT: 18.1 µM (inactive)

Data origin: ChEMBL document CHEMBL1201862
